- Species on record: Rattus norvegicus
- Experiment Description: Degradation rate constant in biological media of rat liver homogenates.
- Type: ADME, organism-based
Observed Property: Degradation rate constant (h⁻¹)
Output spec: scalar in h⁻¹, unitless text.

Some molecules with known Degradation rate constant results, for comparison:
CCCC(=O)N1CCCC1=O ... 3.11
CC(=O)N1CCCC1=O ... 0.097
CCCCCCCCCC(=O)N1CCCC1=O ... 2.87
CCCCCCCCCCCC(=O)N1CCCC1=O ... 1.23
O=C1CCCN1 ... 0.03

Turning now to a further molecule:
Lookup: What does the data say about its Degradation rate constant? Entry: `CCCCCCC(=O)N1CCCC1=O`
Found: 14.6

* * *

- Species: Rattus norvegicus
- Experiment Description: Degradation rate constant in biological media of rat brain homogenates.
- Type: ADME, organism-based
Observed Property: Degradation rate constant (h⁻¹)
Output spec: scalar in h⁻¹, unitless text.

CCCCCCCCCCCC(=O)N1CCCC1=O ... 0.233
CC(=O)N1CCCC1=O ... 0.014

Lookup: What does the data say about its Degradation rate constant? Entry: `CCCCCCC(=O)N1CCCC1=O`
Found: 0.075

Lookup: What does the data say about its Degradation rate constant? Entry: `CCCC(=O)N1CCCC1=O`
Found: 0.016

Lookup: What does the data say about its Degradation rate constant? Entry: `CCCCCCCCCC(=O)N1CCCC1=O`
Found: 0.381

Lookup: What does the data say about its Degradation rate constant? Entry: O=C1CCCN1 [2-PYRROLIDONE]
Found: 0.016

* * *

- Experiment Description: Degradation rate constant in the buffer solution(pH 7.4) was studied as a measure of the stability of the compound.
- Assay type: physicochemical
Simple rule here: Degradation rate constant less than 0.008 h⁻¹ is Satisfied, otherwise Not satisfied.

Some solved entries appear below for comparison.
CCCCCCC(=O)N1CCCC1=O ... Not satisfied
CCCCCCCCCCCC(=O)N1CCCC1=O ... Satisfied
O=C1CCCN1 [2-PYRROLIDONE] ... Satisfied
CC(=O)N1CCCC1=O ... Not satisfied

# input for lookup
Lookup: Below 0.008 h⁻¹ on Degradation rate constant? Entry `CCCC(=O)N1CCCC1=O`
Found: Satisfied
